- Procedure summary: Kinematic viscosity of shampoo base formulation with viscosity reducing agent (calibrated viscometers)
- Format: physicochemical
- Condition label: lowest of 2-8% agent in base formulation, 40° C.
Measurement kind: Lowest viscosity achieved (cSt)

>>> result("CCCCCC(=O)OCC(C)C [Isobutyl Hexanoate]")
"109 cSt"
>>> result("CCCCCC1(C)CCC(C)(C)C1=O (centres unmarked) [Veloutone]")
"47 cSt"
>>> result("CCCCOC(=O)c1ccccc1O [Butyl Salicylate]")
"368 cSt"
>>> result("CCCCCCCCCCCCCC(=O)OC(C)C [Iso Propyl Myristate]")
"30 cSt"
>>> result("CCCCCCCCCCCCCCCC [Hexadecane]")
"18 cSt"
>>> result("CCO [Ethanol]")
"29 cSt"
>>> result("COC(C)(C)C1CC=C(C)CC1 (centres unmarked) [Orange Flower Ether]")
"419 cSt"
>>> result("CCC(=O)O[C@@H]1C[C@H]2CC[C@]1(C)C2(C)C (racemic) [Iso Bornyl Propionate]")
"463 cSt"
>>> result("CC12CCC(CC1=O)C2(C)C (centres unmarked) [Camphor Gum]")
"127 cSt"
>>> result("CC(CC=O)CCCC(C)(C)O (centres unmarked) [Hydroxycitronellal]")
"34 cSt"
>>> result("CC(=O)OCCC(C)CCCC(C)C (centres unmarked) [3,7-Dimethyloctyl Acetate]")
"446 cSt"
